Entry source: patent US20260035385A1

test: Pharmacokinetic test in mice; type: in vivo; conditions: male, C57, mouse, po, i.g. (10 mg/kg), plasma
assay metric: AUC(0-t) (ng·h/mL)

compound: COc1cc(C)c2[nH]ccc2c1CN1CC[C@@H](C2CC2)C[C@H]1c1ccc(C(=O)O)cc1 [Trifluoroacetate of compound 5 (diastereomer 1)]
assay metric: AUC(0-t)
result: 15900
